Test: Compound was tested for maximum concentration in blood after 2.5 mg/kg administration (Po) in Beagle dogs; nmol/L maximum blood concentration
Conditions: dog
metric-name: Cmax (nM)
Kindly provide the numeric value in nM only, without the unit symbol.

Any idea what Cmax was measured for C[C@@H](O)CNC(=O)[C@@H](Cc1ccccc1)N(C)C(=O)[C@@H](Cc1ccc2ccccc2c1)N(C)C(=O)/C=C/CC(C)(C)N (stereo in doubt; 7b) ?
260

* * *

List of IC50 values.
Species: Rattus norvegicus
Assay: Compound was tested against the effect of substance P antagonist on the release of growth hormone from pituitary cells in rat
Assay type: functional, cell-based
Conditions: Pituitary gland cell
Phrase the answer as number then unit, nothing more needed.

Any idea what IC50 was measured for C[C@@H](O)CNC(=O)[C@@H](Cc1ccccc1)N(C)C(=O)[C@@H](Cc1ccc2ccccc2c1)N(C)C(=O)/C=C/CC(C)(C)N (stereo in doubt; 7b) ?
140 nM

Any idea what IC50 was measured for C[C@H](NC(=O)C(Cc1c[nH]c2ccccc12)NC(=O)[C@@H](N)Cc1c[nH]cn1)C(=O)N[C@@H](Cc1c[nH]c2ccccc12)C(=O)NC(Cc1ccccc1)C(=O)N[C@@H](CCCCN)C(N)=O (single isomer, unassigned) ?
38 nM

Turning now to a further record.
Any idea what IC50 was measured for CNC(=O)[C@@H](Cc1ccc(F)cc1)N(C)C(=O)[C@@H](Cc1ccc2ccccc2c1)N(C)C(=O)/C=C/CC(C)(C)N ?
49 nM

* * *

Molecular target: Growth hormone secretagogue receptor type 1 (Rattus norvegicus)
Sequence (O08725 whole entry): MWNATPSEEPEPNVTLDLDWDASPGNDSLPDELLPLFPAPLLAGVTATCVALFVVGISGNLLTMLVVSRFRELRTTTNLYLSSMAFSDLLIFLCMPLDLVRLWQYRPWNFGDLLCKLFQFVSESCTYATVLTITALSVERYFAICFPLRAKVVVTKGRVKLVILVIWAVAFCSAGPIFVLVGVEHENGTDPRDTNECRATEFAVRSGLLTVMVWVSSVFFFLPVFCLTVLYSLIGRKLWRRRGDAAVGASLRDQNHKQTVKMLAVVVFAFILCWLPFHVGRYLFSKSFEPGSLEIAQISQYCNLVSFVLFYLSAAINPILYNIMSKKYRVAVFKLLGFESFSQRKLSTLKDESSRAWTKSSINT
Assay: Tested for GH-releasing property using classical rat pituitary cell assay
List of log10(EC50) values.
A value of 2 here means EC50 of 100 in nM, since values are log10.

Guide cases for log10(EC50), answers given:
Enter reported log10(EC50) observed with Growth hormone secretagogue receptor type 1 (Rattus norvegicus) for C[C@H](O)CNC(=O)[C@@H](Cc1ccc(F)c(F)c1)N(C)C(=O)[C@@H](Cc1ccc2ccccc2c1)N(C)C(=O)/C=C/CC(C)(C)N
0.70

Enter reported log10(EC50) observed with Growth hormone secretagogue receptor type 1 (Rattus norvegicus) for CNC(=O)[C@@H](Cc1ccc(F)c(F)c1)N(C)C(=O)[C@@H](Cc1ccc2ccccc2c1)N(C)C(=O)/C=C/CC(C)(C)N
1.23

Enter reported log10(EC50) observed with Growth hormone secretagogue receptor type 1 (Rattus norvegicus) for CN(C(=O)/C=C/CC(C)(C)N)[C@H](Cc1ccc2ccccc2c1)C(=O)N(C)[C@H](Cc1ccccc1)C(=O)NCC1CCCO1 (some centres not stated)
1.20

Enter reported log10(EC50) observed with Growth hormone secretagogue receptor type 1 (Rattus norvegicus) for C[C@H](O)CNC(=O)[C@@H](Cc1cccs1)N(C)C(=O)[C@@H](Cc1ccc2ccccc2c1)N(C)C(=O)/C=C/CC(C)(C)N
1.65

---
Enter reported log10(EC50) observed with Growth hormone secretagogue receptor type 1 (Rattus norvegicus) for CNC(=O)[C@@H](Cc1ccccc1)N(C)C(=O)[C@@H](Cc1cccc2ccccc12)N(C)C(=O)/C=C/CC(C)(C)N
1.38

Enter reported log10(EC50) observed with Growth hormone secretagogue receptor type 1 (Rattus norvegicus) for C[C@@H](O)CNC(=O)[C@@H](Cc1ccccc1)N(C)C(=O)[C@@H](Cc1ccc2ccccc2c1)N(C)C(=O)/C=C/CC(C)(C)N (stereo in doubt; 7b)
0.95

Enter reported log10(EC50) observed with Growth hormone secretagogue receptor type 1 (Rattus norvegicus) for CCNC(=O)[C@@H](Cc1ccccc1)N(C)C(=O)[C@@H](Cc1ccc2ccccc2c1)N(C)C(=O)/C=C/CC(C)(C)N
1.11

Enter reported log10(EC50) observed with Growth hormone secretagogue receptor type 1 (Rattus norvegicus) for CN(C(=O)/C=C/CC(C)(C)N)[C@H](Cc1cccc2ccccc12)C(=O)N(C)[C@H](Cc1ccccc1)C(=O)NCC1CCCO1 (some centres not stated)
1.32

Enter reported log10(EC50) observed with Growth hormone secretagogue receptor type 1 (Rattus norvegicus) for CNC(=O)[C@@H](Cc1ccccc1)N(C)C(=O)[C@@H](Cc1ccc(-c2ccccc2)cc1)N(C)C(=O)/C=C/CC(C)(C)N
0.48

Enter reported log10(EC50) observed with Growth hormone secretagogue receptor type 1 (Rattus norvegicus) for CNC(=O)[C@@H](Cc1ccc(F)cc1)N(C)C(=O)[C@@H](Cc1ccc2ccccc2c1)N(C)C(=O)/C=C/CC(C)(C)N
0.90

Enter reported log10(EC50) observed with Growth hormone secretagogue receptor type 1 (Rattus norvegicus) for CNC(=O)[C@@H](Cc1ccccc1)N(C)C(=O)[C@@H](Cc1ccc2ccccc2c1)N(C)C(=O)/C=C/CC(C)(C)N
1.26

* * *

System: Sus scrofa
Assay: Tested for in vivo activity against GH release after iv administration in swine
List of Cmax [GH] values.
Kindly provide the numeric value in ng/mL only, without the unit symbol.

Guide cases for Cmax [GH], answers given:
Enter reported Cmax [GH] observed with Sus scrofa for CNC(=O)[C@@H](Cc1cccs1)N(C)C(=O)[C@@H](Cc1ccc2ccccc2c1)N(C)C(=O)/C=C/CC(C)(C)N
55

Enter reported Cmax [GH] observed with Sus scrofa for CNC(=O)[C@@H](Cc1ccc(I)cc1)N(C)C(=O)[C@@H](Cc1ccc2ccccc2c1)N(C)C(=O)/C=C/CC(C)(C)N
0.4

Enter reported Cmax [GH] observed with Sus scrofa for CN(C(=O)/C=C/CC(C)(C)N)[C@H](Cc1ccc2ccccc2c1)C(=O)N(C)[C@H](Cc1ccccc1)C(=O)NCC1CC1
14

Enter reported Cmax [GH] observed with Sus scrofa for CNC(=O)[C@@H](Cc1ccc(F)c(F)c1)N(C)C(=O)[C@@H](Cc1ccc2ccccc2c1)N(C)C(=O)/C=C/CC(C)(C)N
6

Turning now to a further record.
Enter reported Cmax [GH] observed with Sus scrofa for CNC(=O)[C@@H](Cc1ccccc1)N(C)C(=O)[C@@H](Cc1cccc2ccccc12)N(C)C(=O)/C=C/CC(C)(C)N
12

* * *

Experiment: Compound was tested for maximum concentration in blood after 10 mg/kg administration (Po) in Beagle dogs; nmol/L maximum blood concentration
Details: dog
metric-name: Cmax (nM)
Kindly provide the numeric value in nM only, without the unit symbol.

Any idea what Cmax was measured for C[C@@H](O)CNC(=O)[C@@H](Cc1ccccc1)N(C)C(=O)[C@@H](Cc1ccc2ccccc2c1)N(C)C(=O)/C=C/CC(C)(C)N (stereo in doubt; 7b) ?
2320

* * *

Test: Compound was tested for oral bioavailability after 10 mg/kg administration (Po) in Beagle dogs; F % Oral Bioavailability
Type: ADME, organism-based, Canis lupus familiaris
Conditions: dog, in vivo
metric-name: bioavailability
Phrase the answer as number then unit, nothing more needed.

Any idea what bioavailability was measured for C[C@@H](O)CNC(=O)[C@@H](Cc1ccccc1)N(C)C(=O)[C@@H](Cc1ccc2ccccc2c1)N(C)C(=O)/C=C/CC(C)(C)N (stereo in doubt; 7b) ?
41%

* * *

Test: Compound was tested for oral bioavailability after 0.5 mg/kg administration (Po) in Beagle dogs; fpo % Oral Bioavailability
Type: ADME, organism-based, Canis lupus familiaris
Conditions: dog, in vivo
metric-name: bioavailability (%)
Kindly provide the numeric value in % only, without the unit symbol.

Any idea what bioavailability was measured for CNC(=O)[C@@H](Cc1ccc(F)cc1)N(C)C(=O)[C@@H](Cc1ccc2ccccc2c1)N(C)C(=O)/C=C/CC(C)(C)N ?
53

* * *

Assay: Oral bioavailability in dog (Beagle)
Format: ADME, organism-based, Canis lupus familiaris
Settings: beagle, in vivo
metric-name: bioavailability (%)
Kindly provide the numeric value in % only, without the unit symbol.

Guide cases for bioavailability, answers given:
Any idea what bioavailability was measured for CN(C(=O)/C=C/CC(C)(C)N)[C@H](Cc1ccc2ccccc2c1)C(=O)N(C)[C@H](Cc1ccccc1)C(=O)NCC1CC1 ?
24

Any idea what bioavailability was measured for CCNC(=O)[C@@H](Cc1ccccc1)N(C)C(=O)[C@@H](Cc1ccc2ccccc2c1)N(C)C(=O)/C=C/CC(C)(C)N ?
14

Any idea what bioavailability was measured for CNC(=O)[C@@H](Cc1cccs1)N(C)C(=O)[C@@H](Cc1ccc2ccccc2c1)N(C)C(=O)/C=C/CC(C)(C)N ?
15

Any idea what bioavailability was measured for CNC(=O)[C@@H](Cc1ccc(F)cc1)N(C)C(=O)[C@@H](Cc1ccc2ccccc2c1)N(C)C(=O)/C=C/CC(C)(C)N ?
49

---
Any idea what bioavailability was measured for CNC(=O)[C@@H](Cc1ccccc1)N(C)C(=O)[C@@H](Cc1ccc(-c2ccccc2)cc1)N(C)C(=O)/C=C/CC(C)(C)N ?
0

Any idea what bioavailability was measured for CNC(=O)[C@@H](Cc1ccc(F)c(F)c1)N(C)C(=O)[C@@H](Cc1ccc2ccccc2c1)N(C)C(=O)/C=C/CC(C)(C)N ?
54

Any idea what bioavailability was measured for CNC(=O)[C@@H](Cc1ccc(I)cc1)N(C)C(=O)[C@@H](Cc1ccc2ccccc2c1)N(C)C(=O)/C=C/CC(C)(C)N ?
26

Any idea what bioavailability was measured for CNC(=O)[C@@H](Cc1ccccc1)N(C)C(=O)[C@@H](COCc1ccccc1)N(C)C(=O)/C=C/CC(C)(C)N ?
11

Any idea what bioavailability was measured for CN(C(=O)/C=C/CC(C)(C)N)[C@H](Cc1ccc2ccccc2c1)C(=O)N(C)[C@H](Cc1ccccc1)C(=O)NCC1CCCO1 (some centres undefined) ?
17
